All values here come from patent US9198420B2.

- assay_explanation: Rat serum assay (release of NRB or NRB analogue)
- Format: in vitro ADME
- condition_details: 80% rat serum, 37° C., 3 h, n = 3
- Procedure: The hydrolytic stability of compounds of the invention in rat blood was evaluated using in vitro rat serum obtained from Sigma-Aldrich and stored at −78° C. […] Each compound and corresponding NRB or NRB analogue were subjected to external calibration curves at 50 μM, 100 μM and 200 μM to allow conversion of absorbance unit area into nmol, from which the percentage of NRB or NRB analogue released from each compound was calculated.
measure: % NRB released, Rat Serum (%)
Answers are plain numbers, in %.

Below: 3 molecules and their reported % NRB released, Rat Serum.
O=C(C=Cc1ccccc1)OCCCN1C(=O)C2C3C=C(C(O)(c4ccccc4)c4ccccn4)C(C3=C(c3ccccc3)c3ccccn3)C2C1=O (stereo not drawn)
76.5
O=C(CCCCC(=O)OCCN1C(=O)C2C3C=C(C(O)(c4ccccc4)c4ccccn4)C(C3=C(c3ccccc3)c3ccccn3)C2C1=O)OCCN1C(=O)C2C3C=C(C(O)(c4ccccc4)c4ccccn4)C(C3=C(c3ccccc3)c3ccccn3)C2C1=O (stereo not drawn)
11.7
CC(CN1C(=O)C2C3C=C(C(O)(c4ccccc4)c4ccccn4)C(C3=C(c3ccccc3)c3ccccn3)C2C1=O)OC(=O)C=Cc1ccccc1 (stereo not drawn)
33.8

From here, focus on the item given below.
Entry O=C(CCCCCCC(=O)OCN1C(=O)C2C3C=C(C(O)(c4ccccc4)c4ccccn4)C(C3=C(c3ccccc3)c3ccccn3)C2C1=O)OCN1C(=O)C2C3C=C(C(O)(c4ccccc4)c4ccccn4)C(C3=C(c3ccccc3)c3ccccn3)C2C1=O (stereo not drawn) , % NRB released, Rat Serum reported as 14.9
